# target-or-test-system: T1, recombinant human CD14 (B294801, histidine tagged) (Homo sapiens, UniProt P08571)
# T1 construct: His; purchased Shanghai BaiYing Biotechnology Co., Ltd B294801 (Batch number 20200518A22)
# T1 sequence (P08571 20-345): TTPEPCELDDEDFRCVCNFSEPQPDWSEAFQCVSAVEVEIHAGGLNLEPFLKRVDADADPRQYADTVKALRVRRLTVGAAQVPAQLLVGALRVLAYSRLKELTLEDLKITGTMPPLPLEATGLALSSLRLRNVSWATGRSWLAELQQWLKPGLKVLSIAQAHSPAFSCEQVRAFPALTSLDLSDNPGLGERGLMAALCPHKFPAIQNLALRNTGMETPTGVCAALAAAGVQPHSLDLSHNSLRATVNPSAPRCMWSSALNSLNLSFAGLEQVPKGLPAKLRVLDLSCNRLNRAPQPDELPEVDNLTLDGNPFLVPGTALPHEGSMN
# assay-notes: Biacore 8K kinetic and affinity test of humanized antibodies (Example 8)
# Type: binding
# condition: relative to mouse antibody D6DD3D001
metric: Change Factor (ratio of KD of the humanized to mouse antibody)
Number only, no unit.

>>> quantitative_readout("D6DD3D006: humanized anti-CD14 antibody; VH SEQ ID NO: 21, VL SEQ ID NO: 23 (antibody, V domains shown) VH: QVQLQESGPGLVKPSQTLSLTCTVSGYSITSDSAWNWIRQPPGKGLEWIGYISYSGSTSYNPSLKSRVTISRDTSKNQFSLKLSSVTAADTAVYYCVRGLRFAYWGQGTLVTVSS VL: EIVLTQSPATLSLSPGERATLSCRASESVDSYVNSFLHWYQQKPGQAPRLLIYRASNLQSGIPARFSGSGSRTDFTLTISSLEPEDVAVYYCQQSNEDPYTFGQGTKLEIK")
1.24

Now look at this one.
Fill blank: measured Change Factor (ratio of KD of the humanized to mouse antibody) of the molecule D6DD3D004: humanized anti-CD14 antibody; VH SEQ ID NO: 13, VL SEQ ID NO: 15 (antibody, V domains shown) VH: QLQLQESGPGLVKPSETLSLTCTVSGGSISSDSAWNWIRQPPGKGLEWIGYISYSGSTSYNPSLKSRVTISRDTSKNQFSLKLSSVTAADTAVYYCVRGLRFAYWGQGTLVTVSS VL: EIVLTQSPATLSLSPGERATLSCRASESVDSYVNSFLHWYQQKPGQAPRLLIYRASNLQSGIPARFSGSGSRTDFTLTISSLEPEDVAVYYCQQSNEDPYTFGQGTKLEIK is ____.
4.10
